// reported self-cleavage per item
B1: HDV Ribozyme (parent)
chain: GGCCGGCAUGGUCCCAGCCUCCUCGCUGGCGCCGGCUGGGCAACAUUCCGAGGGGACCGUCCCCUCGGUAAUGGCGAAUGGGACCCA

Variants of: B1
assay.overview: self-cleavage, relative activity (ratio to wild type); higher = more cleavage; co-transcriptional
Respond using a number only.

Worked cases, self-cleavage given:
{"columns": ["record.sequence", "self-cleavage"],
 "data": [
  ["GGCCGGCAUCGUCCCAGCCUCCUCGCUGGCGCCGGCUGGGCAAUAUUCCGAGGGGACCGUCCCCUCGGUAAUGGCGAAUGGGACCCA [G10C C44U]", 0.582],
  ["GGCCGGCAUGGUCCCAGCCUCCUCGCUGGCGGCGGCUAGGCAACAUUCCGAGGGGACCGUCCCCUCGGUAAUGGCGAAUGGGACCCA [C32G G38A]", 0.0831],
  ["GGCCGGCAUGGUCCCAGCCUCCUCGCAGGCGCCGGCUGGGCAACAUUCCGAGGGGACCGUCCCCUCCGUAAUGGCGAAUGGGACCCA [U27A G67C]", 0.59],
  ["GGCCGGCAUGGUCCCAGCCACCUCGCUGGCGCCGGCUGGGCAACAUUCCGAGGGGACCGUCCCCCCGGUAAUGGCGAAUGGGACCCA [U20A U65C]", 0.0639],
  ["GGCCGGCAGGGUCCCAGCCUCCUCGCUGGCGCCGGCUGGGCAACAUUCCGAGGGGACCGUCCCCUCGGUAAUGGCGAAUGGGACCUA [U9G C86U]", 1.42]
]}

# input Would you mind telling me what self-cleavage value was observed for GGCCGGCAUGGUCCCAGCCUCCUCGCUGGCGCCGGCUGGGCAACAUUCCGAGGGUACCGUCCCCUCGGUAAUGGCGAAUGUGACCCA [G55U G81U] ?
# output 0.272

# input Requested read-out: self-cleavage. Entry: GGCCGGCAUGGUCCCAGCCUCCUCGCUGGCGCCGGCUGGGCAACAUUCCGAGGCGACCGUCCCCUCGGUAAAGGCGAAUGGGACCCA [G54C U72A]
# output 0.702

# input I would be grateful if you could share the reported self-cleavage for GGCCGCCAUGGUCCCAGCCUCCUCGCUGGCGCCGGCUGGGCAACAUUCCGAGGGGACCGUCCCCUCGGUAAAGGCGAAUGGGACCCA [G6C U72A] .
# output 0.0755

# input // lookup self-cleavage for GGCCGGCAUGGUCCCAGCUUCCUCGCUGGCGCCGGCUGGGCAACAUUCCGAGGGGUCCGUCCCCUCGGUAAUGGCGAAUGGGACCCA [C19U A56U]
# output 0.0863

# input Reported self-cleavage, variant GGCCGGCAUGGUCCCAGCCUCCUCGCUGGCGCCGGCUGGGCAACAUUCCGAGGGGACCGUCCCCCCGGUAAUGGCGAAUGGGACCCC [U65C A87C] : ____
# output 1.09

# input Fill blank: measured self-cleavage of the variant GGCCGGCGUGGUCCCAGCCUCCUCGCUGGCGCCGGCUGGGCAACAUUCCGAGGGGACCGUCCCCUCGGUAAUUGCGAAUGGGACCCA [A8G G73U] is ____.
# output 0.148
